For each record, write down the corresponding IC50.
Target: CETP (Homo sapiens, UniProt P11597)
Construct: tissue New Drug Development Research Center, Inc; host or cells: human EDTA plasma from healthy men
Sequence (P11597 18-493): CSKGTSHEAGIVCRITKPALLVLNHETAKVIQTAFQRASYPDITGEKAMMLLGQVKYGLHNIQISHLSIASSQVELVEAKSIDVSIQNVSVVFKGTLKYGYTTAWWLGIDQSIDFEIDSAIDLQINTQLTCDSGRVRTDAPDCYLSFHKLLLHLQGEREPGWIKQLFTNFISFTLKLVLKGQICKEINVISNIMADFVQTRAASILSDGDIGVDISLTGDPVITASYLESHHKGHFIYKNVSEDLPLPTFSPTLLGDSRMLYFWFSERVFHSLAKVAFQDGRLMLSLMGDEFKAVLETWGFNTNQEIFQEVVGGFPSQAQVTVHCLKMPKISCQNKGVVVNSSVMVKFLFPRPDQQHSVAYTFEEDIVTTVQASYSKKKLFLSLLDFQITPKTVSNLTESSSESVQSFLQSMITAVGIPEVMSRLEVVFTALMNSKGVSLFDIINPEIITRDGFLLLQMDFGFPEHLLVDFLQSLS
Assay: In vitro CETP activity assay in human plasma
Type: biochemical
Settings: CETP inhibition; Table 1 does not name the assay, it follows the human plasma assay; read-out: IC50 (nM), Inhibitory Activity of Compounds
# output: numeric value plus its unit

# input Param item = CC[C@@H]1C[C@H](N(Cc2cc(C(F)(F)F)cc(C(F)(F)F)c2)c2ncc(-c3cnn(C)c3)cn2)C[C@H](CC)N1C(=O)[C@H]1CC[C@H](CC(=O)O)CC1 ; retrieve measured IC50.
# output 142 nM

# input Report IC50 for CC[C@@H]1C[C@H](N(Cc2cc(C(F)(F)F)cc(C(F)(F)F)c2)c2ncc(-c3cnn(C)c3)cn2)C[C@H](CC)N1C(=O)OCCCCC(=O)O please.
# output 135 nM

# input Can you share its IC50? I mean this compound: CC[C@@H]1C[C@H](N(Cc2cc(C(F)(F)F)cc(C(F)(F)F)c2)c2ncc(-c3cnn(C)c3)cn2)C[C@H](CC)N1C(=O)O[C@H]1CC[C@H](C(=O)O)CC1
# output 69 nM

# input Suppose we examine the compound CC[C@@H]1C[C@H](N(Cc2cc(C(F)(F)F)cc(C(F)(F)F)c2)c2ncc(-c3cnn(C)c3)cn2)C[C@H](CC)N1C(=O)OCCCCC(N)=O ; what IC50 value has been reported?
# output 68 nM

# input # IC50 lookup, item CC[C@@H]1C[C@H](N(Cc2cc(C(F)(F)F)cc(C(F)(F)F)c2)c2ncc(-c3cnn(C)c3)cn2)C[C@H](CC)N1C(=O)O[C@H]1C[C@H](C(=O)O)C1
# output 86 nM

====

Target: CETP (Homo sapiens, UniProt P11597)
Construct: tissue New Drug Development Research Center, Inc; host or cells: human EDTA plasma from healthy men
Assay: In vitro CETP activity assay in human plasma
Type: biochemical
Conditions: CETP inhibition; Table 1 does not name the assay, it follows the human plasma assay; read-out: IC50 (nM), Inhibitory Activity of Compounds
Observation Type: IC50
Write your answer as a measured quantity: the number, then the unit.

# input What does the record list as IC50 for C[C@@H]1C[C@H](N(Cc2cc(C(F)(F)F)cc(C(F)(F)F)c2)c2ncc(-c3cnn(C)c3)cn2)C[C@H](C)N1C(=O)O[C@H]1CC[C@H](C(=O)O)CC1 [Example 1-19] ?
# output 98 nM

# input Form field: reported IC50 of CC[C@@H]1C[C@H](N(Cc2cc(C(F)(F)F)cc(C(F)(F)F)c2)c2ncc(-c3cnn(C)c3)cn2)C[C@H](CC)N1C(=O)OCC(C)(C)CCC(=O)O [Example 1-11]
# output 63 nM

# input Item CC[C@@H]1C[C@H](N(Cc2cc(F)cc(C(F)(F)F)c2)c2ncc(-c3cnn(C)c3)cn2)C[C@H](CC)N1C(=O)O[C@H]1CC[C@H](C(=O)O)CC1 [Example 1-22] has what recorded IC50?
# output 99 nM

# input compound: CC[C@@H]1C[C@H](N(Cc2cc(Cl)cc(Cl)c2)c2ncc(-c3cnn(C)c3)cn2)C[C@H](CC)N1C(=O)O[C@H]1CC[C@H](C(=O)O)CC1 [Example 1-20] ; wanted: its IC50
# output 91 nM

# input Item CC[C@@H]1C[C@H](N(Cc2cc(C(F)(F)F)cc(C(F)(F)F)c2)c2ncc(-c3cnn(C)c3)cn2)C[C@H](CC)N1C(=O)O[C@H]1C[C@H](C(C)(C)C(=O)O)C1 [Example 1-27] has what recorded IC50?
# output 152 nM
